# experimental_target: GPR119 receptor (UniProt Q8TDV5, S309L, species not given)
# test_name: GPR119 signaling, cyclic AMP (cAMP) homogenous time resolved fluorescence (HTRF) assay
# Type: cell-based
# applied_conditions: CHO cells with Gα15 and murine GPR119, or HEK293 Flp-In cells with human GPR119 S309L; table does not say which; read-out: Activity: inflection points, denoted as EC50 values (agonist activation of GPR119, cAMP)
The entries below come with measured EC50 values attached.
property: EC50

- Cc1nnc(-c2ccc(OCC[C@H]3C[C@H]3C3CCN(c4ncc(Cl)cc4Cl)CC3)cc2F)o1 (racemic) [Ex 88]: > 0.2 µM
- CS(=O)(=O)c1ccc(OC[C@H]2C[C@@H]2CC2CCN(c3ncc(Cl)cn3)CC2)cc1 [Ex 103]: 0.01 to 0.05 µM
- O=C(NC1CC1)c1ccc(OC[C@H]2C[C@@H]2CC2CCN(c3ncc(Cl)cn3)CC2)cc1F [Ex 108]: 0.01 to 0.05 µM
- Cc1nc(C#N)cc(OCC[C@@H]2C[C@@H]2C2CCN(c3ncc(C)c(C)n3)CC2)n1 (racemic) [Ex 44]: 0.01 to 0.05 µM
- Cc1nnc(-c2ccc(OC[C@H]3C[C@@H]3CC3CCN(c4ncc(Cl)cn4)CC3)cc2F)o1 [Ex 110]: 0.01 to 0.05 µM
- O=C(NC1CC1)c1ccc(OCCC2CC2C2CCN(c3ncc(Cl)cn3)CC2)cc1F (racemic) [Ex 11]: < 0.01 µM
- C[S+]([O-])c1ccc(OCCC2CC2C2CCN(c3ncc(Cl)cn3)CC2)cc1 (single isomer, unassigned) [Ex 33]: < 0.01 µM
- CS(=O)(=O)c1ccc(OC[C@H]2C[C@H]2CC2CCN(c3ncc(Cl)cn3)CC2)cc1 (racemic) [Ex 116]: > 0.2 µM
- Cc1cc(OC[C@@H]2C[C@@H]2CC2CCN(c3ncc(Cl)cn3)CC2)nc(C#N)n1 (racemic) [Ex 118]: 0.01 to 0.05 µM
- Cc1nc(C#N)cc(OCC[C@@H]2C[C@@H]2C2CCN(c3ncc(Cl)cn3)CC2)n1 (racemic) [Ex 51]: < 0.01 µM
- Cc1nnc(-c2ccc(OCCC3CC3C3CCN(c4ncc(Cl)cn4)CC3)cc2F)o1 (racemic) [Ex 32]: < 0.01 µM
- Clc1cnc(N2CCC(C3CC3CCOc3ccc(-n4cnnn4)cc3)CC2)nc1 (single isomer, unassigned) [Ex 83cS]: < 0.01 µM
- O=C(NC1CC1)c1ccc(OCC[C@H]2C[C@@H]2C2CCN(c3ncc(Cl)cn3)CC2)cc1F [Ex 93]: < 0.01 µM
- Clc1cnc(N2CCC(C3CC3CCOc3ccc(-c4cnoc4)cc3)CC2)nc1 (racemic) [Ex 20]: 0.05 to 0.2 µM
- Clc1cnc(N2CCC([C@H]3C[C@@H]3CCOc3ccc(-n4cncn4)cc3)CC2)nc1 [Ex 95]: 0.01 to 0.05 µM
- Cc1nnnn1-c1ccc(OCCC2CC2C2CCN(c3ncc(Cl)cn3)CC2)cc1 (racemic) [Ex 31b]: 0.01 to 0.05 µM
- Clc1cnc(N2CCC(C3CC3CCOc3cccc(-n4cncn4)c3)CC2)nc1 (racemic) [Ex 9]: 0.05 to 0.2 µM
- Clc1cnc(N2CCC([C@@H]3C[C@@H]3CCOc3ccncc3)CC2)nc1 (racemic) [Ex 55]: 0.01 to 0.05 µM
- Clc1cnc(N2CCC(C3CC3CCOc3ccc(-n4cnnc4)cc3)CC2)nc1 (racemic) [Ex 26]: 0.01 to 0.05 µM
- Cc1cnc(N2CCC([C@@H]3C[C@@H]3CCOc3ccc(-c4nnc(C)o4)c(F)c3)CC2)nc1 (racemic) [Ex 84]: < 0.01 µM
